Readings of pIC50 for the listed compounds
Biological target: UniProt:O42275
Sequence (O42275 24-633): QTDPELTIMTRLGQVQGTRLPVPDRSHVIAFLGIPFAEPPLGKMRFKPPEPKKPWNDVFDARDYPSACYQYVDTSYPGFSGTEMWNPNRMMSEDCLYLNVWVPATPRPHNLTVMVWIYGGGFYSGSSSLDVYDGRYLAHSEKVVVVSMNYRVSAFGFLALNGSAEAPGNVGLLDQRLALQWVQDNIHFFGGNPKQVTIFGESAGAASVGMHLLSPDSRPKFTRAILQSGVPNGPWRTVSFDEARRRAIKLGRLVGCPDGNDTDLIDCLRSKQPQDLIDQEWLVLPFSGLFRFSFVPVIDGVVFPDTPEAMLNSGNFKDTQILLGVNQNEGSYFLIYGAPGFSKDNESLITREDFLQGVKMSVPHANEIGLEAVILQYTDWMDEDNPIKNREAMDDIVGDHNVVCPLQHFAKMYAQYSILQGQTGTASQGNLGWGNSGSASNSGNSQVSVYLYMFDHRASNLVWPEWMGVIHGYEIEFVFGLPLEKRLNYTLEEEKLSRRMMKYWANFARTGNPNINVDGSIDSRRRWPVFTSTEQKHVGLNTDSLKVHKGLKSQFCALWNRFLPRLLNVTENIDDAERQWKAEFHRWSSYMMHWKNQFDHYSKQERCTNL
Keep in mind that pIC50 stands for -log10 of concentration in molar terms.

Cc1cc(SC#N)c(C(C)C)cc1O [compound 1, 5-isopropyl-2-methyl-4-thiocyanatophenol]: 5.39

Could you share which pIC50 value was measured for Cc1cc(Sc2nsc(Sc3cc(C)c(O)cc3C(C)C)n2)c(C(C)C)cc1O [compound 4] ?
7.47

Give the measured pIC50 of Cc1cc(Sc2nsc(-c3cc(C)c(O)cc3C(C)C)n2)c(C(C)C)cc1O [compound 3] .
7.25

Suppose we examine the compound Cc1cc(Sc2cc(C)c(O)cc2C(C)C)c(C(C)C)cc1O [compound 2, 4,4′-thiobis(5-isopropyl-2-methylphenol)] ; what pIC50 value has been reported?
6.80
